Test: amyloid nucleation score (Sup35N fusion, yeast selection) (log enrichment); library NNK3; higher = more nucleation; inactive = no reads after selection;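 also: zero at mode of non-aggregating sequences after 7 days selection at 30°C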
Measured parameter: amyloid nucleation score

[[record]]
substance = "VISGVIVMWYAWMWAGYRVR"
measured_parameter = "amyloid nucleation score"
result_value = "inactive"

[[record]]
substance = "THRSRKSDPNRQSFIKCGHS"
measured_parameter = "amyloid nucleation score"
result_value = "inactive"

[[record]]
substance = "ESVRRMLLTLGAHWGSPIHF"
measured_parameter = "amyloid nucleation score"
result_value = "inactive"

[[record]]
substance = "TLPMLDNTNNFTSPL"
measured_parameter = "amyloid nucleation score"
result_value = -0.034

[[record]]
substance = "IVIYLSHDKNLIQVRSSCEG"
measured_parameter = "amyloid nucleation score"
result_value = 2.59

[[record]]
substance = "SHCVSTT"
measured_parameter = "amyloid nucleation score"
result_value = "inactive"

[[record]]
substance = "GRALNWTG"
measured_parameter = "amyloid nucleation score"
result_value = "inactive"

[[record]]
substance = "LHYMYTYFTTKVLSSRIGGV"
measured_parameter = "amyloid nucleation score"
result_value = "inactive"

[[record]]
substance = "QSRMPCSLFILVNGDHDDMA"
measured_parameter = "amyloid nucleation score"
result_value = "inactive"

[[record]]
substance = "FYNRPKWLFVLGPENILCDS"
measured_parameter = "amyloid nucleation score"
result_value = "inactive"


Then there is this substance:
Query: Return reported amyloid nucleation score; argument: `TDTLCDWYLPNRRWIKDNEW`
Response: inactive

###

Experiment: amyloid nucleation score (Sup35N fusion, yeast selection) (log enrichment); library NNK1; higher = more nucleation; inactive = no reads after selection
Measured parameter: amyloid nucleation score
Answer with a bare number; do not write a unit.

Previously resolved entries follow.
[[record]]
residue_codes = "TSLCMIHYVK"
measured_parameter = "amyloid nucleation score"
result_value = -0.069

[[record]]
residue_codes = "SVRGSYCYASLVCSDFL"
measured_parameter = "amyloid nucleation score"
result_value = -1.12

[[record]]
residue_codes = "PVVGRARRYRREAAENVVLD"
measured_parameter = "amyloid nucleation score"
result_value = 0.943

[[record]]
residue_codes = "RESGMTMHVVPQPLDTKTWC"
measured_parameter = "amyloid nucleation score"
result_value = 0.612


Query: Return reported amyloid nucleation score; argument: `YRMIIVGLCFMVVHMAASRK`
Response: 0.514

###

Experiment: amyloid nucleation score (Sup35N fusion, yeast selection) (log enrichment); library NNK3; higher = more nucleation; inactive = no reads after selection
Measured parameter: amyloid nucleation score

Previously resolved entries follow.
[[record]]
residue_codes = "DGQARISRYSTWLEEFLRCG"
result_value = "inactive"

[[record]]
residue_codes = "FCRPNSWI"
result_value = 0.53

[[record]]
residue_codes = "SGCERAWMAVCENRSSCILG"
result_value = "inactive"

[[record]]
residue_codes = "RIYQRSFIWCASMESGSGPL"
result_value = 0.747

[[record]]
residue_codes = "DLDFFGGCLFFHQGTIFYDG"
result_value = "inactive"

[[record]]
residue_codes = "MRDMIINMVSGETNGLCVKP"
result_value = "inactive"

[[record]]
residue_codes = "ALFSKKFI"
result_value = 1.83

[[record]]
residue_codes = "WMHRAYWLSGVCRVLQVTNL"
result_value = "inactive"


Query: Return reported amyloid nucleation score; argument: `ETYWQINSTECKFTSFQRLF`
Response: inactive
